Values from the supplement of paper PMC10567573

B1: DYRK1B (parent)
chain: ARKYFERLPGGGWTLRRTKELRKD

variants of: B1; assay: protein stability index of a GFP-peptide fusion (GPS, HEK-293T) (PSI 1-6); higher = more stable; settings: c terminus: a fixed tail appended;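 further: lentivirally expressed fusions sorted by FACS into six bins by GFP to DsRed ratio, PSI derived from sequencing read proportions per bin multiplied by bin number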
For each of the variants below, state its protein stability index.
One number for each entry.

ARKYFERLPGGGWTLRRPKELRKD [T18P] = 3.57
ARKYFERLPGKGWTLRRTKELRKD [G11K] = 2.06
ARKYFERLPGGGWTLRRTKELTKD [R22T] = 4.19
ARKYFERLPGGGWTLRMTKELRKD [R17M] = 2.38
ARKSFERLPGGGWTLRRTKELRKD [Y4S] = 3.37
ARKYFERLPGGGWTLRRTKELQKD [R22Q] = 3.9
ARKVFERLPGGGWTLRRTKELRKD [Y4V] = 3.44
ARKYFERLPGGLWTLRRTKELRKD [G12L] = 2.57

For every item in the list below, what is its measured protein stability index?
1. ARKYFEREPGGGWTLRRTKELRKD [L8E]
2. MRKYFERLPGGGWTLRRTKELRKD [A1M]

3.71
2.84
